TARGET_OR_TEST_SYSTEM: CDK4/cyclin D3 (Homo sapiens, UniProt P11802)
Construct: made in house; host or cells: insect cells (baculovirus co-infection)
Sequence (P11802 whole entry): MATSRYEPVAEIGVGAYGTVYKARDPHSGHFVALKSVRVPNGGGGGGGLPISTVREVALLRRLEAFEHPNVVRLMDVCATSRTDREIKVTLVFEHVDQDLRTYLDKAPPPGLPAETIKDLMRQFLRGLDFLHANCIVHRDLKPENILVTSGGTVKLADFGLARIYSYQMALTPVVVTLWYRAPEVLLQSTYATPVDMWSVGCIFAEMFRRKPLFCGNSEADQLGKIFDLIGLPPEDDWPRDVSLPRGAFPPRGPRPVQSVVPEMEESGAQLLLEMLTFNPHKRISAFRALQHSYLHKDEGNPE
Sequence (P30281 1-264 partner limits assumed): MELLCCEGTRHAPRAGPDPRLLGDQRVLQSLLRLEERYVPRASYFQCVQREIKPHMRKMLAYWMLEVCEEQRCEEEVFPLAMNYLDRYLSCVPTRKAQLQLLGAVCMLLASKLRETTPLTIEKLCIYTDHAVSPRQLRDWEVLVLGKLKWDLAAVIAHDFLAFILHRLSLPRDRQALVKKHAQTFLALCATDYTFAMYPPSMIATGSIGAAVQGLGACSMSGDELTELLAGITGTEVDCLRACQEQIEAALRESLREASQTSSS
EXPERIMENT_NOTES: Inhibition of CDK4/Cyclin D retinoblastoma kinase activity
Type: biochemical
RUN_PARAMETERS: test compound at 0.03 (unit cell empty, head line shifted; μM); read-out: % Inhib CDK4/D @ 0.03
PROPERTY_MEASURED: inhibition at 0.03 µM (%)

Study these solved cases before continuing.
COMPOUND | inhibition at 0.03 µM [%]
CC(C)=CC[S+]([O-])c1ccc(Nc2nc(N)c(C(=O)c3c(Cl)cccc3Cl)s2)cc1 (centres unmarked) | -38
CC(C)(CO)CSc1cccc(Nc2nc(N)c(C(=O)c3c(Cl)cccc3Cl)s2)c1 | 1.2
COc1cccc(C[S+]([O-])c2cccc(Nc3nc(N)c(C(=O)c4c(Cl)cccc4Cl)s3)c2)c1 (centres unmarked) | -1.7
CN1CCCC1CC[S+]([O-])c1ccc(Nc2nc(N)c(C(=O)c3c(Cl)cccc3Cl)s2)cc1 (centres unmarked) | -5.6
Nc1nc(Nc2ccc(SCC(O)CO)cc2)sc1C(=O)c1c(Cl)cccc1Cl (centres unmarked) | 32

(A) NC(=O)CSc1cccc(Nc2nc(N)c(C(=O)c3c(Cl)cccc3Cl)s2)c1
(B) CCOCCS(=O)(=O)c1ccc(Nc2nc(N)c(C(=O)c3c(Cl)cccc3Cl)s2)cc1
Of the two listed items, A and B , which carries the larger inhibition at 0.03 µM figure? Your answer should be the label attached to the chosen record.
A

====

TARGET_OR_TEST_SYSTEM: CDK4/cyclin D3 (Homo sapiens, UniProt P11802)
Construct: made in house; host or cells: insect cells (baculovirus co-infection)
EXPERIMENT_NOTES: Inhibition of CDK4/Cyclin D retinoblastoma kinase activity;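 for % Inhib CDK4/D @ 1 μM: relative to DMSO control wells without compound minus no-enzyme background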
Format: biochemical
RUN_PARAMETERS: test compound at 1 μM (head line shifted: 'mM' printed beside 'Structure'); read-out: % Inhib CDK4/D @ 1 μM
PROPERTY_MEASURED: inhibition at 1 µM (%)

Study these solved cases before continuing.
COMPOUND | MEASURED_NUMBER
Nc1nc(Nc2cccc([S+]([O-])CC3CO3)c2)sc1C(=O)c1c(Cl)cccc1Cl (centres unmarked) | 62
NC(=O)CC[S+]([O-])c1cccc(Nc2nc(N)c(C(=O)c3c(Cl)cccc3Cl)s2)c1 (centres unmarked) | 65.5
CCC(CC)C[S+]([O-])c1cccc(Nc2nc(N)c(C(=O)c3c(Cl)cccc3Cl)s2)c1 (centres unmarked) | 15.1

(A) CC(CN(C)C)C[S+]([O-])c1ccc(Nc2nc(N)c(C(=O)c3c(Cl)cccc3Cl)s2)cc1 (centres unmarked)
(B) Nc1nc(Nc2ccc(SCCCO)cc2)sc1C(=O)c1c(Cl)cccc1Cl
(C) CC(C)CC[S+]([O-])c1cccc(Nc2nc(N)c(C(=O)c3c(Cl)cccc3Cl)s2)c1 (centres unmarked)
(D) CC(C)OC(=O)CCS(=O)(=O)c1ccc(Nc2nc(N)c(C(=O)c3c(Cl)cccc3Cl)s2)cc1
Sort these compounds on inhibition at 1 µM so the largest reading comes first. Please list each label once, in the requested order.
B, A, C, D

====

Tested on: HCT-116 cells
EXPERIMENT_NOTES: Inhibition of cell growth (MTT tetrazolium salt assay)
Format: cell-based
RUN_PARAMETERS: Homo sapiens, read-out: HCT116 IC90
PROPERTY_MEASURED: IC90 (nM)

Study these solved cases before continuing.
MOLECULE | TARGET_OR_TEST_SYSTEM | IC90 (nM)
Cc1ccc(CCNS(=O)(=O)c2ccc(Nc3nc(N)c(C(=O)c4c(F)cccc4F)s3)cc2)cc1 | HCT-116 cells | 3700
Nc1nc(Nc2ccc(S(=O)(=O)NCCCc3ccccc3)cc2)sc1C(=O)c1c(F)cccc1F | HCT-116 cells | 380
Nc1nc(Nc2ccc(S(=O)(=O)NCCc3ccc(F)cc3)cc2)sc1C(=O)c1c(F)cccc1F | HCT-116 cells | 2600
Cc1csc(NS(=O)(=O)c2ccc(Nc3nc(N)c(C(=O)c4c(F)cccc4F)s3)cc2)n1 | HCT-116 cells | 17000
CC(CCCC(C)(C)O)NS(=O)(=O)c1ccc(Nc2nc(N)c(C(=O)c3c(F)cc(F)cc3F)s2)cc1 (centres unmarked) | HCT-116 cells | 2300

(a) Nc1nc(Nc2ccc([S+]([O-])CCO)cc2)sc1C(=O)c1c(Cl)cccc1Cl (centres unmarked)
(b) Cc1ccc(C(C)NS(=O)(=O)c2ccc(Nc3nc(N)c(C(=O)c4c(F)cccc4F)s3)cc2)o1 (centres unmarked)
(c) Nc1nc(Nc2ccc(S(=O)(=O)NCCCCCO)cc2)sc1C(=O)c1c(F)cccc1F
(d) Nc1nc(Nc2ccc(S(=O)(=O)NCC3CCCCN3)cc2)sc1C(=O)c1c(F)cccc1F (centres unmarked)
(e) Nc1nc(Nc2ccc(S(=O)(=O)NCCCN3CCCCC3)cc2)sc1C(=O)c1c(F)cccc1F
Sort these molecules on IC90 so the largest reading comes first. Please list each label once, in the requested order.
a, d, c, e, b

(A) CS(=O)(=O)c1ccc(Nc2nc(N)c(C(=O)c3c(Cl)cccc3Cl)s2)cc1
(B) CS(=O)(=O)c1ccc(Nc2nc(N)c(C(=O)c3c(F)cccc3F)s2)cc1
Of A and B , which carries the smaller reported IC90 figure? Your answer should be the label attached to the chosen record.
B
(B: 3800 nM, A: 18000 nM)
